Answer each item with its documented IC50.
- TARGET_UNDER_TEST: Bifunctional dihydrofolate reductase-thymidylate synthase (Plasmodium falciparum K1, UniProt P13922)
- Sequence (P13922 whole entry): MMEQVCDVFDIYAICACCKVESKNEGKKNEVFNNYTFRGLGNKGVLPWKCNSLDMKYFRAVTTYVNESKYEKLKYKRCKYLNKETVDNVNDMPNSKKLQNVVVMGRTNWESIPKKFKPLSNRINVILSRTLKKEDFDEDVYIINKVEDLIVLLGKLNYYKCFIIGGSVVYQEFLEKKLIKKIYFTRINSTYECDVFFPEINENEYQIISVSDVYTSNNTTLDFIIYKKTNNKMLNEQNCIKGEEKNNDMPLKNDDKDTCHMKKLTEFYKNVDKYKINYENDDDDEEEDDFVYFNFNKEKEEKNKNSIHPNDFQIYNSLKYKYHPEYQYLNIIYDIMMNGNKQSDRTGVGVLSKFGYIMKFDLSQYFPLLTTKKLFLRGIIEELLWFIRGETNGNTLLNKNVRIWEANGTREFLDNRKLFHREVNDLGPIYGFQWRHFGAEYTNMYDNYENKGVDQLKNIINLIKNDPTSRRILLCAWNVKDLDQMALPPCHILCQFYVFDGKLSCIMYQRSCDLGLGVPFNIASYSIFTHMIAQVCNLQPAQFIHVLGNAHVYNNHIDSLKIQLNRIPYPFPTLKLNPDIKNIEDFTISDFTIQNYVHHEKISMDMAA
- EXPERIMENT_NOTES: Inhibitory activity against recombinant wild type (WT) Plasmodium falciparum DHFR-TS
Give bare numbers, in nM.

Qu. What IC50 value was documented for this compound, CCc1nc(N)nc(N)c1-c1cccc(Cl)c1 ?
Ans. 2.7

# next compound below
Qu. What IC50 value was documented for this compound, CCc1nc(N)nc(N)c1-c1cccc(OC)c1 ?
Ans. 9.3

###

- TARGET_UNDER_TEST: Bifunctional dihydrofolate reductase-thymidylate synthase (Plasmodium falciparum K1, UniProt P13922)
- EXPERIMENT_NOTES: Binding affinity was evaluated as inhibition of mutant (C59R + S108N) Plasmodium falciparum DHFR-TS.
MEASUREMENT_TYPE: Ki (µM)
One number for each entry, in µM.

Solved cases below.
Qu. What Ki value was documented for this compound, NC(=O)c1ccc[n+]([C@H]2O[C@@H](COP(=O)([O-])OP(=O)(O)OC[C@H]3O[C@@H](n4cnc5c(N)ncnc54)[C@H](OP(=O)(O)O)[C@@H]3O)[C@H](O)[C@@H]2O)c1 ?
Ans. 0.0145

Qu. Lookup CCc1nc(N)nc(N)c1-c1cccc(Cl)c1
Ans. 0.0024

Qu. Lookup CCc1nc(N)nc(N)c1-c1cccc(OC)c1
Ans. 0.014

# next compound below
Qu. What Ki value was documented for this compound, CC1(C)N=C(N)N=C(N)N1c1ccc(Cl)cc1 ?
Ans. 0.0821
